- test protocol: modulation of AI-2 quorum-sensing luminescence – JMH597 strain, luminescence/OD600 ratio, primary screen (AID 2094);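 note: luminescence divided by OD600 gain over 9 h not by final OD600 alone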
- run parameters: Vibrio harveyi JMH597 AI-2 luminescence/OD600 ratio, 9 h; at 7.5 µM; stronger effect = lower value; 0 = neutral-control median; strain lacks LuxN and CqsS sensors
Out of some 300,000 compounds screened, about 1,200 (0.4%) were called active. This is one part of a sample in which actives are shown more often than they occur.
reported endpoint: activity change

INPUT: State the recorded activity change for this entry: COC(=O)c1ccc(SCc2ccccc2)nc1
OUTPUT: -80.3% (active)

INPUT: Query (molecule): O=C(Cc1ccc([N+](=O)[O-])cc1)Nc1ccc(C(=O)N2CCOCC2)cc1 ; field requested: activity change
OUTPUT: 31% (inactive)

INPUT: For the molecule COC(=O)c1ccc(CSc2nncn2C)cc1 , what activity change is on record?
OUTPUT: 9.24% (inactive)

INPUT: GET /values?readout=activity change&item= CCSc1nsc(NC(=O)Nc2ccccc2OC)n1
OUTPUT: 11.5% (inactive)

INPUT: Need activity change, item CC(=O)Nc1ccc(NS(=O)(=O)c2ccc3c(c2)NC(=O)CC(=O)N3)cc1
OUTPUT: 6.21% (inactive)

INPUT: For O=C1COc2ccc(S(=O)(=O)NCCc3ccc(Cl)cc3)cc2N1 , what is its reported activity change?
OUTPUT: -21.2% (inactive)
